# Test system: KRAS patient-derived spheroids with HUVEC/MSC, viability
# Protocol details: Anticancer human tumor 323965-272-R-J2-PDC patient-derived pancreatic carcinoma cell line growth inhibition [KRAS2]
# Measurement conditions: second compound 0.316 µM; first compound 0.001 µM; stronger effect = lower value
We begin with a simple list: items and their reported viability, T/C.
I only need the number, in %, no unit after it.

Compound	viability, T/C / %
Cn1ncnc1[C@H]1c2n[nH]c(=O)c3cc(F)cc(c23)N[C@@H]1c1ccc(F)cc1 + C=CC(=O)N1CCN(c2nc(=O)n(-c3c(C)ccnc3C(C)C)c3nc(-c4c(O)cccc4F)c(F)cc23)C(C)C1	63.2
CC(C)n1nc(-c2ccc3oc(N)nc3c2)c2c(N)ncnc21 + C=CC(=O)N1CCN(c2nc(OCC3CCCN3C)nc3c2CCN(c2cccc4cccc(C)c24)C3)CC1CC#N	37.3

# context switch: different compound, same viability, T/C
Record CC(C)n1nc(-c2ccc3oc(N)nc3c2)c2c(N)ncnc21 + CC1OCC2(CCN(c3cnc(Sc4ccnc(N)c4Cl)c(N)n3)CC2)C1N / KRAS patient-derived spheroids with HUVEC/MSC, viability, viability, T/C recorded as 42.1

---

# Test system: KRAS patient-derived spheroids with HUVEC/MSC, viability
# Protocol details: Anticancer human tumor 323965-272-R-J2-PDC cell line growth inhibition [KRAS2];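 note: spheroids exposed to agents for 7 days; 100% = DMSO vehicle control viability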
# Measurement conditions: second compound 3.16 µM; first compound 0.1 µM; stronger effect = lower value
Reported metric: viability, T/C (%)
I only need the number, in %, no unit after it.

As a guide, the following entries are already answered.
Compound	viability, T/C / %
Cn1ncnc1[C@H]1c2n[nH]c(=O)c3cc(F)cc(c23)N[C@@H]1c1ccc(F)cc1 + C=CC(=O)N1CCN(c2nc(OCC3CCCN3C)nc3c2CCN(c2cccc4cccc(C)c24)C3)CC1CC#N	11.6
CC1COCCN1c1cc(-c2ccnn2C)c2ccnc(-c3ccn[nH]3)c2n1 (stereo not given) + C=CC(=O)N1CCN(c2nc(OCC3CCCN3C)nc3c2CCN(c2cccc4cccc(C)c24)C3)CC1CC#N	3.06
O=C(c1cc(Cc2n[nH]c(=O)c3ccccc23)ccc1F)N1CCN(C(=O)C2CC2)CC1 + C=CC(=O)N1CCN(c2nc(OCC3CCCN3C)nc3c2CCN(c2cccc4cccc(C)c24)C3)CC1CC#N	27.4
CC(C)n1nc(-c2ccc3oc(N)nc3c2)c2c(N)ncnc21 + C=CC(=O)N1CCN(c2nc(OCC3CCCN3C)nc3c2CCN(c2cccc4cccc(C)c24)C3)CC1CC#N	4.1
O=C(c1cc(Cc2n[nH]c(=O)c3ccccc23)ccc1F)N1CCN(C(=O)C2CC2)CC1 + COc1cc2nc(C)nc(NC(C)c3cc(N)cc(C(F)(F)F)c3)c2cc1OC1CCOC1	82.2

The reported viability, T/C of the compound CC(=O)OC12COC1CC(O)C1(C)C(=O)C(O)C3=C(C)C(OC(=O)C(O)C(NC(=O)OC(C)(C)C)c4ccccc4)CC(O)(C(OC(=O)c4ccccc4)C21)C3(C)C (stereo not given) + C=CC(=O)N1CCN(c2nc(=O)n(-c3c(C)ccnc3C(C)C)c3nc(-c4c(O)cccc4F)c(F)cc23)C(C)C1 was 17.6

The reported viability, T/C of the compound CCNC(=O)CC1N=C(c2ccc(Cl)cc2)c2cc(OC)ccc2-n2c(C)nnc21 (stereo not given) + C=CC(=O)N1CCN(c2nc(=O)n(-c3c(C)ccnc3C(C)C)c3nc(-c4c(O)cccc4F)c(F)cc23)C(C)C1 was 51.9

The reported viability, T/C of the compound COc1cc2nccc(Oc3ccc(NC(=O)C4(C(=O)Nc5ccc(F)cc5)CC4)cc3)c2cc1OC + CC1OCC2(CCN(c3cnc(Sc4ccnc(N)c4Cl)c(N)n3)CC2)C1N was 36.1

The reported viability, T/C of the compound CC(C)NCC(C(=O)N1CCN(c2ncnc3c2C(C)CC3O)CC1)c1ccc(Cl)cc1 (stereo not given) + COc1cc2nc(C)nc(NC(C)c3cc(N)cc(C(F)(F)F)c3)c2cc1OC1CCOC1 was 53

The reported viability, T/C of the compound CC1OCC2(CCN(c3cnc(Sc4ccnc(N)c4Cl)c(N)n3)CC2)C1N (stereo not given) + COc1cc2nc(C)nc(NC(C)c3cc(N)cc(C(F)(F)F)c3)c2cc1OC1CCOC1 was 33.7

---

# Test system: KRAS patient-derived spheroids with HUVEC/MSC, viability
# Protocol details: Anticancer human tumor 323965-272-R-J2-PDC cell line growth inhibition [KRAS2];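 note: spheroids exposed to agents for 7 days; 100% = DMSO vehicle control viability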
# Measurement conditions: second compound 10 µM; first compound 0.0316 µM; stronger effect = lower value
We begin with a simple list: items and their reported viability, T/C.

The reported viability, T/C of the compound CCN1CCN(Cc2ccc(Nc3ncc(F)c(-c4cc(F)c5nc(C)n(C(C)C)c5c4)n3)nc2)CC1 + CC1OCC2(CCN(c3cnc(Sc4ccnc(N)c4Cl)c(N)n3)CC2)C1N was 13.9%

The reported viability, T/C of the compound CC1(C)CCC(CN2CCN(c3ccc(C(=O)NS(=O)(=O)c4ccc(NCC5CCOCC5)c([N+](=O)[O-])c4)c(Oc4cnc5[nH]ccc5c4)c3)CC2)=C(c2ccc(Cl)cc2)C1 + CNCc1ccccc1-c1csc(C(C)Nc2nc(C)nc3cc(OC)c(OC)cc23)c1 was 0.23%

The reported viability, T/C of the compound CCNC(=O)CC1N=C(c2ccc(Cl)cc2)c2cc(OC)ccc2-n2c(C)nnc21 (stereo not drawn) + COc1cc2nc(C)nc(NC(C)c3cc(N)cc(C(F)(F)F)c3)c2cc1OC1CCOC1 was 72.8%

---

We begin with a simple list: items and their reported viability, T/C.
# System: KRAS patient-derived spheroids with HUVEC/MSC, viability
# Protocol details: Anticancer human tumor 323965-272-R-J2-PDC cell line growth inhibition [KRAS2];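 note: spheroids exposed to agents for 7 days; 100% = DMSO vehicle control viability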
# Measurement conditions: second compound 3.16 µM; first compound 3.16 µM; stronger effect = lower value
I only need the number, in %, no unit after it.

Compound	Quantitative result
COc1cc2nccc(Oc3ccc(NC(=O)C4(C(=O)Nc5ccc(F)cc5)CC4)cc3)c2cc1OC + CNCc1ccccc1-c1csc(C(C)Nc2nc(C)nc3cc(OC)c(OC)cc23)c1	66.5
COc1cc(Nc2ncc3c(n2)-c2ccc(Cl)cc2C(c2c(F)cccc2OC)=NC3)ccc1C(=O)O + C=CC(=O)N1CCN(c2nc(OCC3CCCN3C)nc3c2CCN(c2cccc4cccc(C)c24)C3)CC1CC#N	20.5

# context switch: different compound, same viability, T/C
The reported viability, T/C of the compound CC(C)NCC(C(=O)N1CCN(c2ncnc3c2C(C)CC3O)CC1)c1ccc(Cl)cc1 (stereo not drawn) + CNCc1ccccc1-c1csc(C(C)Nc2nc(C)nc3cc(OC)c(OC)cc23)c1 was 21.5

---

# Tested on: KRAS patient-derived spheroids with HUVEC/MSC, viability
# Protocol details: Anticancer human tumor 323965-272-R-J2-PDC cell line growth inhibition [KRAS2];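 note: spheroids exposed to agents for 7 days; 100% = DMSO vehicle control viability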
# Measurement conditions: second compound 0.316 µM; first compound 0.01 µM; stronger effect = lower value
Returns: string. Value is criterion met if measured viability, T/C is below 50%, and criterion not met if it is greater than or equal to it.

Observe how each entry below is paired with its result.
Compound	Answer label
CN(C)C/C=C/C(=O)Nc1cc2c(Nc3ccc(F)c(Cl)c3)ncnc2cc1O[C@H]1CCOC1 + CC1OCC2(CCN(c3cnc(Sc4ccnc(N)c4Cl)c(N)n3)CC2)C1N	criterion met
CN(C)C/C=C/C(=O)Nc1cc2c(Nc3ccc(F)c(Cl)c3)ncnc2cc1O[C@H]1CCOC1 + C=CC(=O)N1CCN(c2nc(=O)n(-c3c(C)ccnc3C(C)C)c3nc(-c4c(O)cccc4F)c(F)cc23)C(C)C1	criterion met
CN(C)C/C=C/C(=O)Nc1cc2c(Nc3ccc(F)c(Cl)c3)ncnc2cc1O[C@H]1CCOC1 + COc1cc2nc(C)nc(NC(C)c3cc(N)cc(C(F)(F)F)c3)c2cc1OC1CCOC1	criterion met
CC1COCCN1c1cc(-c2ccnn2C)c2ccnc(-c3ccn[nH]3)c2n1 (stereo unspecified) + CNCc1ccccc1-c1csc(C(C)Nc2nc(C)nc3cc(OC)c(OC)cc23)c1	criterion not met
CN(C)C/C=C/C(=O)Nc1cc2c(Nc3ccc(F)c(Cl)c3)ncnc2cc1O[C@H]1CCOC1 + CNCc1ccccc1-c1csc(C(C)Nc2nc(C)nc3cc(OC)c(OC)cc23)c1	criterion not met
Cn1ncnc1[C@H]1c2n[nH]c(=O)c3cc(F)cc(c23)N[C@@H]1c1ccc(F)cc1 + CC1OCC2(CCN(c3cnc(Sc4ccnc(N)c4Cl)c(N)n3)CC2)C1N	criterion not met
Cn1ncnc1[C@H]1c2n[nH]c(=O)c3cc(F)cc(c23)N[C@@H]1c1ccc(F)cc1 + C=CC(=O)N1CCN(c2nc(=O)n(-c3c(C)ccnc3C(C)C)c3nc(-c4c(O)cccc4F)c(F)cc23)C(C)C1	criterion not met
CC(=O)Nc1cccc(-n2c(=O)n(C3CC3)c(=O)c3c(Nc4ccc(I)cc4F)n(C)c(=O)c(C)c32)c1 + CC1OCC2(CCN(c3cnc(Sc4ccnc(N)c4Cl)c(N)n3)CC2)C1N	criterion met
Cn1ncnc1[C@H]1c2n[nH]c(=O)c3cc(F)cc(c23)N[C@@H]1c1ccc(F)cc1 + COc1cc2nc(C)nc(NC(C)c3cc(N)cc(C(F)(F)F)c3)c2cc1OC1CCOC1	criterion not met
CCN1CCN(Cc2ccc(Nc3ncc(F)c(-c4cc(F)c5nc(C)n(C(C)C)c5c4)n3)nc2)CC1 + C=CC(=O)N1CCN(c2nc(OCC3CCCN3C)nc3c2CCN(c2cccc4cccc(C)c24)C3)CC1CC#N	criterion met

# ---- query compound ----
Bench note: check whether Cn1ncnc1[C@H]1c2n[nH]c(=O)c3cc(F)cc(c23)N[C@@H]1c1ccc(F)cc1 + C=CC(=O)N1CCN(c2nc(OCC3CCCN3C)nc3c2CCN(c2cccc4cccc(C)c24)C3)CC1CC#N shows viability, T/C below 50%
criterion not met
